Reference source for all entries: paper PMC7023064

Test system: human breast adenocarcinoma MCF-7 cell lines
method: MTT cytotoxicity assay, MCF-7
Assay type: cell-based
condition_description: Homo sapiens, MCF7; MTT, 72 h, mean ± SD of three experiments; read-out: IC50 MCF-7
List of IC50 values.
The answer is to be given in µM; state only the numeric part.

The cases that follow already have their IC50 on record.
| compound | IC50 [µM] |
| --- | --- |
| COc1cc2c(cc1OCCCCCCCCn1c(=O)ccn([C@@H]3O[C@H](CO)[C@@H](O)[C@H]3O)c1=O)CC[C@@H]1[C@@H]2CC[C@]2(C)[C@@H](O)CC[C@@H]12 | 7.87 |
| COc1cc2c(cc1OCCCCCCn1c(=O)ccn([C@@H]3O[C@H](CO)[C@@H](O)[C@H]3O)c1=O)CC[C@@H]1[C@@H]2CC[C@]2(C)[C@@H](O)CC[C@@H]12 | 6.21 |
| COc1cc2c(cc1O)CC[C@@H]1[C@@H]2CC[C@]2(C)[C@@H](OCCCCCCCCn3c(=O)ccn([C@@H]4O[C@H](CO)[C@@H](O)[C@H]4O)c3=O)CC[C@@H]12 | 13.9 |

Request: Quick one: IC50 of COc1cc2c(cc1OCCCCCCn1cc(C)c(=O)n(CCCCCCOc3cc4c(cc3OC)[C@H]3CC[C@]5(C)[C@@H](O)CC[C@H]5[C@@H]3CC4)c1=O)CC[C@@H]1[C@@H]2CC[C@]2(C)[C@@H](O)CC[C@@H]12 [Compound 21b] ?
Result: 28.4

* * *

recorded_endpoint: melting point

| compound | recorded_endpoint | result |
| --- | --- | --- |
| COc1cc2c(cc1OCCCCCCCCn1cc(C)c(=O)n(CCCCCCCCOc3cc4c(cc3OC)[C@H]3CC[C@]5(C)[C@@H](O)CC[C@H]5[C@@H]3CC4)c1=O)CC[C@@H]1[C@@H]2CC[C@]2(C)[C@@H](O)CC[C@@H]12 [Compound 23b] | melting point | 75 to 76 °C |

Let us examine a further case.
Request: For COc1cc2c(cc1O)CC[C@@H]1[C@@H]2CC[C@]2(C)[C@@H](OCCCCCCn3ccc(=O)n(CCCCCCO[C@H]4CC[C@H]5[C@@H]6CCc7cc(O)c(OC)cc7[C@H]6CC[C@]45C)c3=O)CC[C@@H]12 [Compound 12b] , what is its reported melting point?
Result: 71 to 73 °C

* * *

System: human breast adenocarcinoma MCF-7 cell lines
method: MTT cytotoxicity assay, MCF-7
Assay type: cell-based
condition_description: Homo sapiens, MCF7; MTT, 72 h, mean ± SD of three experiments; read-out: IC50 MCF-7
Measured pIC50 accompanies every entry in the list below.
Keep it numeric: pIC50 is minus log10 of the concentration in mol/L.

| compound | target_desc | pIC50 |
| --- | --- | --- |
| COc1cc2c(cc1O)CC[C@@H]1[C@@H]2CC[C@]2(C)[C@@H](OCCCCCCn3c(=O)ccn([C@@H]4O[C@H](CO)[C@@H](O)[C@H]4O)c3=O)CC[C@@H]12 [Compound 10] | human breast adenocarcinoma MCF-7 cell lines | 4.78 |

Read the next record carefully.
Request: Consider the compound COc1cc2c(cc1O)CC[C@@H]1[C@@H]2CC[C@]2(C)[C@@H](O)CC[C@@H]12 [Compound 1, 2-Methoxyestradiol] and give its measured pIC50.
Result: 5.82

* * *

Test system: human breast adenocarcinoma MCF-7 cell lines
method: MTT cytotoxicity assay, MCF-7
Assay type: cell-based
condition_description: Homo sapiens, MCF7; MTT, 72 h, mean ± SD of three experiments; read-out: IC50 MCF-7
Protocol: Human breast adenocarcinoma MCF-7 cell lines, human breast cancer MDA-MB-231 cell lines, and the normal human liver L-O2 cell lines were provided by Nanjing KeyGen Biotech Co. Ltd. (Nanjing, China). MCF-7 cells were cultured in a base medium (90% RPMI-1640 and 10% FBS) at 37 °C, 5% CO2 and a saturated humidity atmosphere. […] The cytotoxicity of the tested compounds was determined using the 3-(4,5-dimethyl-2-thiazolyl)-2,5-diphenyl-2-H-tetrazolium bromide (MTT) assay. […]
Listing: IC50 of selected molecules

Example results:
| molecule | recorded_endpoint | result |
| --- | --- | --- |
| COc1cc2c(cc1OCCCCCCn1ccc(=O)n(CCCCCCOc3cc4c(cc3OC)[C@H]3CC[C@]5(C)[C@@H](O)CC[C@H]5[C@@H]3CC4)c1=O)CC[C@@H]1[C@@H]2CC[C@]2(C)[C@@H](O)CC[C@@H]12 [Compound 20b] | IC50 | > 100 µM |
| COc1cc2c(cc1O)CC[C@@H]1[C@@H]2CC[C@]2(C)[C@@H](OCCCCCCCCn3ccc(=O)n(CCCCCCCCO[C@H]4CC[C@H]5[C@@H]6CCc7cc(O)c(OC)cc7[C@H]6CC[C@]45C)c3=O)CC[C@@H]12 [Compound 14b] | IC50 | > 100 µM |

Please examine the following record next.
Request: Given the molecule COc1cc2c(cc1OCCCCCCCCn1ccc(=O)n(CCCCCCCCOc3cc4c(cc3OC)[C@H]3CC[C@]5(C)[C@@H](O)CC[C@H]5[C@@H]3CC4)c1=O)CC[C@@H]1[C@@H]2CC[C@]2(C)[C@@H](O)CC[C@@H]12 [Compound 22b] , what is its reported IC50?
Result: > 100 µM

* * *

Reported melting point values follow for various compounds

// solved cases for melting point follow
| compound | melting point |
| --- | --- |
| COc1cc2c(cc1O)CC[C@@H]1[C@@H]2CC[C@]2(C)[C@@H](OCCCCCCn3c(=O)ccn([C@@H]4O[C@H](CO)[C@@H](O)[C@H]4O)c3=O)CC[C@@H]12 [Compound 10] | 79 to 81 °C |
| COc1cc2c(cc1OCCCCCCCCn1ccc(=O)n(CCCCCCCCOc3cc4c(cc3OC)[C@H]3CC[C@]5(C)[C@@H](O)CC[C@H]5[C@@H]3CC4)c1=O)CC[C@@H]1[C@@H]2CC[C@]2(C)[C@@H](O)CC[C@@H]12 [Compound 22b] | 74 to 76 °C |
| COc1cc2c(cc1O)CC[C@@H]1[C@@H]2CC[C@]2(C)[C@@H](OCCCCCCCCn3c(=O)ccn([C@@H]4O[C@H](CO)[C@@H](O)[C@H]4O)c3=O)CC[C@@H]12 [Compound 11] | 95 to 96 °C |

We now examine a further compound.
Request: # query: melting point of entry COc1cc2c(cc1O)CC[C@@H]1[C@@H]2CC[C@]2(C)[C@@H](OCCCCCCCCn3cc(C)c(=O)n(CCCCCCCCO[C@H]4CC[C@H]5[C@@H]6CCc7cc(O)c(OC)cc7[C@H]6CC[C@]45C)c3=O)CC[C@@H]12 [Compound 15b]
Result: 73 to 75 °C

* * *

List of pIC50 values.
Test system: human breast adenocarcinoma MCF-7 cell lines
method: MTT cytotoxicity assay, MCF-7
Type: cell-based
condition_description: Homo sapiens, MCF7; MTT, 72 h, mean ± SD of three experiments; read-out: IC50 MCF-7
Protocol: Human breast adenocarcinoma MCF-7 cell lines, human breast cancer MDA-MB-231 cell lines, and the normal human liver L-O2 cell lines were provided by Nanjing KeyGen Biotech Co. Ltd. (Nanjing, China). MCF-7 cells were cultured in a base medium (90% RPMI-1640 and 10% FBS) at 37 °C, 5% CO2 and a saturated humidity atmosphere. […] The cytotoxicity of the tested compounds was determined using the 3-(4,5-dimethyl-2-thiazolyl)-2,5-diphenyl-2-H-tetrazolium bromide (MTT) assay. […]
pIC50: −log10 of the molar value.

Examples with their reported pIC50 follow.
| molecule | target_desc | result |
| --- | --- | --- |
| COc1cc2c(cc1O)CC[C@@H]1[C@@H]2CC[C@]2(C)[C@@H](OCCCCCCn3ccc(=O)n(CCCCCCO[C@H]4CC[C@H]5[C@@H]6CCc7cc(O)c(OC)cc7[C@H]6CC[C@]45C)c3=O)CC[C@@H]12 [Compound 12b] | human breast adenocarcinoma MCF-7 cell lines | < 4.00 |
| COc1cc2c(cc1O)CC[C@@H]1[C@@H]2CC[C@]2(C)[C@@H](OCCCCCCCCn3cc(C)c(=O)n(CCCCCCCCO[C@H]4CC[C@H]5[C@@H]6CCc7cc(O)c(OC)cc7[C@H]6CC[C@]45C)c3=O)CC[C@@H]12 [Compound 15b] | human breast adenocarcinoma MCF-7 cell lines | < 4.00 |

Would you kindly look at the next entry?
Request: Any idea what pIC50 came out for COc1cc2c(cc1O)CC[C@@H]1[C@@H]2CC[C@]2(C)[C@@H](OCCCCCCn3cc(C)c(=O)n(CCCCCCO[C@H]4CC[C@H]5[C@@H]6CCc7cc(O)c(OC)cc7[C@H]6CC[C@]45C)c3=O)CC[C@@H]12 [Compound 13b] on human breast adenocarcinoma MCF-7 cell lines?
Result: < 4.00
